Origin of measurements: PubChem BioAssay (NCI)

Test system: MALME-3M melanoma
Test: NCI tumour cell line growth inhibition, 48 h
Give measured TGI for each item. Keep answers brief.

compound="CCOC(=O)NC(=S)NC(C)c1ccccc1 (stereo unspecified)" endpoint_name=TGI result_value="> 100 µM"
compound=CC(=O)Nc1nnc(S(=O)(=O)NC(=S)Nc2ccc(Cl)cc2)s1 endpoint_name=TGI result_value="> 100 µM"

Take each entry in turn and give its TGI.
1. CC(Nc1n[nH]c(=O)c2c1nnn2Cc1ccccc1)c1ccccc1 (stereo unspecified)
2. COc1nc(OC)nc(Sc2ccc(Sc3ccc(Sc4nc(OC)nc(OC)n4)cc3)cc2)n1
3. COc1ccc(/C=N\O[Si](C)(C)C(C)(C)C)cc1O[Si](C)(C)C(C)(C)C
4. COc1ccc(/C=C(\Cl)c2ccc(OC)cc2)cc1
5. CCOC(=O)c1cn(CC)c2cc3c(cc2c1=O)SCS3

Marked response:
> 100 µM
> 100 µM
37.4 µM
> 100 µM
> 100 µM

Take each entry in turn and give its TGI.
1. Nc1ccccc1C#C/C=C\C#Cc1ccccc1F
2. Cc1cc(-c2ccc(C(=O)C(c3ccccc3)(c3ccccc3)c3ccccc3)[nH]2)on1
3. O=C(NC1C=Nc2ccccc2NC1=O)c1ccccc1Cl (stereo unspecified)
4. O=C(Nc1ccc(S(=O)(=O)Nc2ncccn2)cc1)c1c2ccccc2nc2ccccc12

Marked response:
["13.9 µM", "> 100 µM", "> 100 µM", "> 100 µM"]
